Reported protein stability index values for a set of variants
B1: CCDC6 (parent)
chain: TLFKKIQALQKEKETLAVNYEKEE

- Variants of: B1
- assay-comment: protein stability index of a GFP-peptide fusion (GPS, HEK-293T) (PSI 1-6); higher = more stable;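 further: lentivirally expressed fusions sorted by FACS into six bins by GFP to DsRed ratio, PSI derived from sequencing read proportions per bin multiplied by bin number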
- conditions-used: c terminus: a fixed tail appended

mutation-key: T1S
protein stability index: 2.92
//
mutation-key: L16F
protein stability index: 2.81
//
mutation-key: V18C
protein stability index: 2.95
//
mutation-key: I6G
protein stability index: 5.06
//
mutation-key: E23L
protein stability index: 2.19
//
mutation-key: K22S
protein stability index: 3.29
//
mutation-key: Y20S
protein stability index: 3.84
//
mutation-key: F3E
protein stability index: 5.42
//
mutation-key: N19G
protein stability index: 3.25
//
mutation-key: E12D
protein stability index: 3.37
//
mutation-key: T15K
protein stability index: 3.3
//
mutation-key: Q7D
protein stability index: 4.38
//
mutation-key: A17C
protein stability index: 3.39
//
mutation-key: L2K
protein stability index: 5.2
//
mutation-key: A17K
protein stability index: 3.41
//
mutation-key: V18R
protein stability index: 2.66
//
mutation-key: A8I
protein stability index: 3.4
//
mutation-key: E12K
protein stability index: 2.59
//
mutation-key: L16K
protein stability index: 2.83
//
mutation-key: E21W
protein stability index: 1.92
//
mutation-key: T1Y
protein stability index: 3.01
//
mutation-key: V18Y
protein stability index: 2.53
//
mutation-key: A17N
protein stability index: 2.65
//
mutation-key: Q7V
protein stability index: 2.7
//
mutation-key: I6L
protein stability index: 3.59
//
mutation-key: N19V
protein stability index: 2.58
//
mutation-key: L9H
protein stability index: 3.88
//
mutation-key: L16E
protein stability index: 4.07
//
mutation-key: E21H
protein stability index: 2.84
//
mutation-key: F3Y
protein stability index: 3.67
//
mutation-key: K22C
protein stability index: 3.46
//
mutation-key: E14M
protein stability index: 2.27
//
mutation-key: E14A
protein stability index: 2.6
//
mutation-key: N19I
protein stability index: 2.7
//
mutation-key: L16T
protein stability index: 3.49
//
mutation-key: T15F
protein stability index: 2.06
//
mutation-key: L9C
protein stability index: 4.33
//
mutation-key: K5C
protein stability index: 2.52
//
mutation-key: K11V
protein stability index: 2.81
//
mutation-key: F3D
protein stability index: 5.28
//
mutation-key: E21K
protein stability index: 2.58
//
mutation-key: Y20N
protein stability index: 3.57
//
mutation-key: K11R
protein stability index: 2.59
//
mutation-key: K22Q
protein stability index: 3.3
//
mutation-key: K4I
protein stability index: 2.76
//
mutation-key: Q10A
protein stability index: 3.17
//
mutation-key: A17V
protein stability index: 2.89
//
mutation-key: I6R
protein stability index: 4.79
//
mutation-key: A17T
protein stability index: 3.18
//
mutation-key: E12L
protein stability index: 1.97
//
mutation-key: Y20A
protein stability index: 3.54
//
mutation-key: A8K
protein stability index: 3.88
//
mutation-key: Y20D
protein stability index: 4.09
//
mutation-key: Q10W
protein stability index: 2.65
//
mutation-key: K11I
protein stability index: 2.85
//
mutation-key: F3W
protein stability index: 2.26
//
mutation-key: E21F
protein stability index: 1.62
//
mutation-key: V18T
protein stability index: 3.02
//
mutation-key: E14V
protein stability index: 2.6
